Target: Wee1 kinase domain (Homo sapiens, UniProt P30291)
Construct: Wee1 kinase domain was purchased from Carna (catalog #05-177); purchased Carna 05-177
Sequence (P30291 299-569 limits assumed): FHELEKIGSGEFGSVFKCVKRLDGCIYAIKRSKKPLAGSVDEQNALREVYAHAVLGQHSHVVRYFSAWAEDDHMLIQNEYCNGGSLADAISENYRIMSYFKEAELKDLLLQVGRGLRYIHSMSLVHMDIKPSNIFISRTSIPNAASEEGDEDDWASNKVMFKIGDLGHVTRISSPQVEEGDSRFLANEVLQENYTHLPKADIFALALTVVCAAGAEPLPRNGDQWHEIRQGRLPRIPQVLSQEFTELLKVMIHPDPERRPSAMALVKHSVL
Assay: Wee1 Kinase Biochemical Assay (ADP-Glo)
Conditions: class symbols; 1 nM Wee1 enzyme, 15 uM ATP, 4 hours at 25° C.
assay.readout: IC50

Example molecules with recorded IC50:
INSERT INTO measurements (molecule, measured) VALUES
  ('CN[C@@H](C)c1cccc(N2c3nc(Nc4ccc(N5C[C@@H]6C[C@H]5CO6)cc4)ncc3[C@]3(C)COC(C)(C)C[C@H]23)n1 (single isomer, unassigned)', '100 to 1000 nM'),
  ('CN1CCC(c2cccc(N3c4nc(Nc5ccc(N6CCOCC6)cc5)ncc4[C@@]4(C)COC(C)(C)C[C@@H]34)n2)CC1 (single isomer, unassigned)', '< 10 nM'),
  ('CN1CC[C@@H]2CN(c3ccc(Nc4ncc5c(n4)N(c4cccc(N6CCCC6=O)n4)[C@H]4CC(C)(C)OC[C@@]54C)cc3)C[C@@H]21', '100 to 1000 nM'),
  ('CNc1ncc2c(n1)N(c1cccc(N=S(C)(C)=O)n1)[C@@H]1CC(C)(C)OC[C@]21C (single isomer, unassigned)', '10 to 100 nM'),
  ('CNCc1cccc(N2c3nc(Nc4ccc(N5CCOCC5)cc4)ncc3[C@@]3(C)COCC[C@@H]23)n1 (single isomer, unassigned)', '< 10 nM');

Consider the additional molecule presented here.
Q) # query: IC50 of entry CC1(C)C[C@@H]2N(c3cccc(N4CCCC4=O)n3)c3nc(Nc4ccc(O[C@H]5CCNC5)cc4)ncc3[C@]2(C)CO1
A) 100 to 1000 nM

Origin of values: patent US20260166039A1
